# TEST SYSTEM: HA of A/Fort Monmouth/1/47 (H1N1) (influenza A virus)
# EXPERIMENT: cell-based or functional assay

BINDER: Antibody 10 (antibody, V domains shown) VH: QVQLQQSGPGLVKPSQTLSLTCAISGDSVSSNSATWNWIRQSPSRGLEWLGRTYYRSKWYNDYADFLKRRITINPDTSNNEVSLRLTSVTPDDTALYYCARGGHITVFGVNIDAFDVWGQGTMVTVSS VL: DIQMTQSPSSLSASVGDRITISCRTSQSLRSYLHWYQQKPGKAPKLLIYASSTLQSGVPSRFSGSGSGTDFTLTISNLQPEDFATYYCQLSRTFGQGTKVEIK
Neutralization IC50, H1-FM47 / µg/mL: 1.11

Value source: patent US20160257732A1
